- Experimental protocol: NCI Yeast Anticancer Drug Screen. Data for the rad50 strain (AID 155);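 also: 0% = growth of vehicle-only cultures of the same strain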
- Applied conditions: S. cerevisiae rad50 strain growth inhibition; at 50.0 µM; hits give high values
- Description: Growth inhibition of yeast strains with defined genetic alterations is measured as a screen for potential anti-cancer activity. Selected strains with alterations in DNA damage repair or cell cycle control were exposed to compounds and growth inhibition was measured relative to vehicle treated controls. The strain used in this assay is rad50
This is part of a sample that, as a whole, favours compounds with a hit. Of some 79,000 tested, about 15% had one in any assay.
So I've got a bunch of molecules here, and I need their growth inhibition values.
Numbers only, in %.

CCCCCCC(=O)O : 0.75
CN(C=O)c1c(F)cc(C(=O)O)cc1F : 3.05
CC(=O)CC(OC(C)=O)C1=CCC2C(CC1C)OC(=O)C2C (stereo not drawn) : 45.8
N#CCc1csc(-c2ccccc2)n1 : 26.6
Cc1ccc(N=Nc2c(N)ccc3ccccc23)cc1 : 90.5
CC(C)[C@@H]1CC[C@@H](C)C[C@H]1N : -16.7
C=C1C(=O)C[C@H]2[C@H]3CC[C@H](C(=O)O)[C@]12CC3(C)C : 90.8
COC(=O)/C=C(/N)CC(=O)OC : 16.9
COc1cc2c(cc1N)-c1ccc(N)cc1C2O (stereo not drawn) : 7.55
Cc1c(C)n(COCCO)c2ncnc(N)c12 : -14.2

Please report growth inhibition for every entry that follows.
1. NC(C(=O)O)c1ccccc1 (stereo not drawn)
2. COc1ccc2c(O)c(Oc3ccc(Cl)cc3)c(=O)oc2c1
3. CCCCCc1c2c(c(CCCCC)c3c1-c1cccc4cccc-3c14)-c1ccc(C)cc1C2

[A]
-0.85
-4.2
-29.7

---

- Experimental protocol: NCI Yeast Anticancer Drug Screen. Data for the mlh1 rad18 strain (AID 175)
- Applied conditions: S. cerevisiae mlh1 rad18 strain growth inhibition; at 50.0 µM; hits give high values
The panel holds about 79,000 compounds, 15% with a hit somewhere; the sample as a whole holds those more often.
Experimental endpoint: growth inhibition (%)
Numbers only, in %.

Below: 3 molecules and their reported growth inhibition.
CN(C)/C=C/c1ccnc2c1C(=O)c1ccccc1C2=O : 92.7
Cc1ccc2oc(=O)cc(CC(=O)O)c2c1 : -7.9
CCOC(=O)C#Cc1ccc(C#CC(=O)OCC)cc1 : 51

Please report growth inhibition for every entry that follows.
1. CCOC(=O)C(Cc1ccccc1)NC(=O)c1[nH]cnc1/N=N/N(C)C (stereo unspecified)
2. COc1ccc(C(=O)C/C(=N\N(C(=O)c2ccc(OC)cc2)c2ccccc2)c2ccc(OC)cc2)cc1
3. NC(=S)N/N=C1\CCCCC1C(O)(C(F)(F)Cl)C(F)(F)Cl (stereo unspecified)

[A]
[-22.3, 6.5, -25.2]

---

So I've got a bunch of molecules here, and I need their growth inhibition values.
- Experimental protocol: NCI Yeast Anticancer Drug Screen. Data for the mlh1 rad18 strain (AID 175)
- Applied conditions: S. cerevisiae mlh1 rad18 strain growth inhibition; at 50.0 µM; hits give high values
This is part of a sample that, as a whole, favours compounds with a hit. Of some 79,000 tested, about 15% had one in any assay.
One number for each entry, in %.

Below: 4 molecules and their reported growth inhibition.
COc1cc2c(cc1OC)C(=O)N(c1ccc(OCCN3CCCC3)cc1)C2=O : -10.4
Cc1cc(S(=O)(=O)Nc2n[nH]c(Nc3ccc4ccccc4c3)n2)c(S)cc1Cl : 39.9
NC(=S)NCCN1CCOCC1 : 10
O=P(O)(O)Oc1ccc(NCCO)cc1 : -13.9

Please report growth inhibition for every entry that follows.
1. O=C(O)/C(=C/c1ccccc1)c1ccccc1
2. COC(=O)c1ccccc1C1CN=NC12Cc1ccc3c(c1C2=O)CCC3 (configuration not stated)
3. CCOc1ccc(C2Oc3c(cccc3OC)C=C2[N+](=O)[O-])cc1OCC (configuration not stated)
4. Nc1nc(SC2CCCCC2)nc2c1ncn2C1OC(CO)C(O)C1O (configuration not stated)
5. CC(C)CCC[C@@H](C)[C@H]1CC[C@H]2[C@@H]3CC[C@H]4CC5(C[C@]4(C)[C@H]3CC[C@]12C)Nc1ccccc1S5 (some centres not stated)
6. COc1ccc(C2C(Cl)C(=O)N2NC(=O)c2ccccc2O)cc1OC (configuration not stated)

[A]
[26.8, 16.7, 5.7, -13.7, -40.7, -34.1]

Please report growth inhibition for every entry that follows.
1. CC(=O)OC1CCCCCCC1
2. CCOC(=O)CN1C(=O)CCC1=O
3. CN(C)N=Nc1ccccc1
4. CCC(COCC(CC)C(=O)O)C(=O)O (configuration not stated)
5. C/C(=C/C(C)O)c1ccccc1 (configuration not stated)

[A]
1: 6.05; 2: -5.95; 3: 29.2; 4: 15.2; 5: -6.9

Please report growth inhibition for every entry that follows.
1. COc1cc(=O)cc2n(c1=O)CCC2
2. O=[N+]([O-])c1nccn1CC(O)CN1CCCCC1 (configuration not stated)
3. CN(C)C(=O)NCc1cccnc1

[A]
1: -2.25; 2: 18.9; 3: -10.7

Please report growth inhibition for every entry that follows.
1. CN(C)CC1OCCc2ccccc21 (configuration not stated)
2. C=C1CCCC(C)(C)C1CC/C(C)=C/CC/C(C)=C/CO (configuration not stated)
3. CC1CCCCN1S(=O)(=O)N(C)C (configuration not stated)
4. CC(=O)NNC(=S)/N=C\c1c(O)[nH]c(=O)[nH]c1=O
5. CC1C(c2ccccc2)OC(c2ccccc2)N1C (configuration not stated)

[A]
10
12.1
6.15
-9.85
-15.2

---

So I've got a bunch of compounds here, and I need their growth inhibition values.
- Experimental protocol: NCI Yeast Anticancer Drug Screen. Data for the rad50 strain (AID 155);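 also: 0% = growth of vehicle-only cultures of the same strain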
- Applied conditions: S. cerevisiae rad50 strain growth inhibition; at 50.0 µM; hits give high values
About 79,000 compounds went through this panel and 15% of them were active in at least one assay; those are over-represented in the sample as a whole.
Answers are plain numbers, in %.

Below: 3 compounds and their reported growth inhibition.
c1ccc(COC(c2ccccc2)(c2ccccc2)c2ccccc2)cc1 : -0.45
O=C1c2ccccc2C(=O)c2c(NCCNC(=O)C3CCCN3)ccc(NCCNC(=O)C3CCCN3)c21 (stereo unspecified) : -1.25
C=CCc1cc(N)ccc1O : 15.9

Please report growth inhibition for every entry that follows.
1. N#CNC(=O)c1ccc(Cl)cc1
2. N#Cc1ccc(C=NC23CC4CC(CC(C4)C2)C3)cc1
3. [Mn+2].[Mn+2].c1ccc2c(c1)-c1nc-2nc2[n-]c(nc3nc(nc4[n-]c(n1)c1ccccc41)-c1ccccc1-3)c1cc3c4nc5nc(nc6[n-]c(nc7nc(nc([n-]4)c3cc21)-c1ccccc1-7)c1ccccc61)-c1ccccc1-5
4. C#CC(C)(O)CC(C)C (stereo unspecified)
5. CC[C@@H](C)[C@H]([C@H](CC(=O)N1CCC[C@@H]1[C@@H](OC)[C@H](C)C(=O)N[C@H](Cc1ccccc1)c1nccs1)OC)N(C)C(=O)[C@H](NC(=O)[C@@H](C(C)C)N(C)C)C(C)C

[A]
-2.8
-12
15.4
1.9
6.95

Please report growth inhibition for every entry that follows.
1. CCCCCCCCCCCCCCCCCCCCCCC
2. O=Cc1ccccc1CCn1c(=O)c2cc3c(=O)n(CCc4ccccc4C=O)c(=O)c3cc2c1=O
3. CC(=O)NCc1cccc[n+]1[O-]
4. Cc1ccnc(SCC(=O)O)n1
5. CN1CCC(CNc2ccccc2)CC1
6. COC(=S)SCSC(=S)OC
7. O=C1c2ccccc2C(=O)c2c(Nc3ccc(Nc4cccc5c4C(=O)c4ccccc4C5=O)c4c3C(=O)c3ccccc3C4=O)cccc21

[A]
-30.4
33.7
14.8
-4.35
3.6
-12.2
-28.4

Please report growth inhibition for every entry that follows.
1. O=C(COc1ccc2c(=O)cc(-c3ccc(Cl)cc3)oc2c1)N1CCN(c2ccccc2)CC1
2. O=C1CCN2C=CC=CC2=N1

[A]
1: 9.15; 2: -14.6

Please report growth inhibition for every entry that follows.
1. CC(=O)Nc1ccc2c(c1)C(P(=O)(OC(C)C)OC(C)C)c1ccccc1-2 (stereo unspecified)
2. Nc1nc2ccccc2[nH]1
3. CCC(C)CCC(C)(O)CC (stereo unspecified)

[A]
[6, 2.2, 9.7]

Please report growth inhibition for every entry that follows.
1. CC(=O)SCCCCl
2. CCCCCCCC[N+](C)(C)CC#CC[N+](C)(C)CCCCCCCC
3. Cc1cc(OCCBr)ccc1[N+](=O)[O-]
4. O=C(CC(O)(C(F)(F)F)C(F)(F)F)c1cccs1
5. Nc1nc(=O)n(C2OC(CO)C(O)C2Cl)cc1I (stereo unspecified)

[A]
1: -9.25; 2: 46.2; 3: -4.5; 4: 3.65; 5: 10.4

Please report growth inhibition for every entry that follows.
1. O=C(CCl)NC(=O)NC1=C(Cl)C(=O)c2ccccc2C1=O
2. C=CCc1ccc(OC(=O)Nc2ccc(S(=O)(=O)CC)cc2)c(OC)c1
3. COC1(OC)CCCCCCCCC(OC)(OC)CCCCCCCC1
4. COc1cc(Cl)ccc1NC(=O)Oc1ccc(-c2ccccc2)cc1Cl
5. CCOc1ccc(OCC)c(NC(=O)OC(C)C)c1
6. CCC(=O)OCCOC(=O)CC
7. CCC1CN1C(=O)c1cc(C(=O)N2CC2CC)cc(C(=O)N2CC2CC)c1 (stereo unspecified)
8. CCOC(=O)C1Cc2c(n(C3CCCCC3)c(=O)n(C)c2=O)OC1c1ccccc1 (stereo unspecified)

[A]
1. 98
2. 1.65
3. 7.5
4. 65.8
5. -6.35
6. 26.8
7. 3.2
8. 14.4

Please report growth inhibition for every entry that follows.
1. Cc1cccc(NC(=O)/C(=N\NC(C)(C)C)C2NC(=S)NC2=O)c1C (stereo unspecified)
2. O=CC(NC(=O)C(O)C(O)C(O)C(O)CO)C(O)C(O)C(O)CO (stereo unspecified)
3. COC1OC(CO)C(OC(=O)Nc2ccccc2)C(OC(=O)Nc2ccccc2)C1O (stereo unspecified)

[A]
-2.25
-13.2
-16.9

Please report growth inhibition for every entry that follows.
1. CC(C)(C)NC(=O)c1cccc(C(=O)NC(C)(C)C)n1
2. O=S(=O)(O)c1cc(Cl)c(O)c(Cl)c1
3. CCN(CC)CCCC(C)NC(=O)c1ccc2c(c1O)C(=O)c1ccccc1C2=O (stereo unspecified)
4. O=C1c2cscc2C(=O)c2c(OCc3ccccc3)ccc(OCc3ccccc3)c21
5. Nc1nc(CCC(=O)Nc2cccc(C(F)(F)F)c2)cc(-c2ccc3ccccc3c2)n1
6. ClCCCCCCCCCCl
7. Clc1ccc(OCCSCCCCCCCCCCSCCOc2ccc(Cl)cc2)cc1

[A]
3.3
7.25
64
3.7
-8.3
28.6
-2
